Data credit: patent US20200231614A1

system: PSMA + PC-3 PiP and PSMA − PC-3 flu tumor xenografts; conditions: 1 H post-injection
Entry flag: true if Biodistribution: bladder reaches 4 % ID/g; false if it does not.

[[record]]
molecule = "N=C(N)NCc1ccc(C(=O)NCCCCC(NC(=O)CCCCCCC(=O)NCCCC[C@H](NC(=O)N[C@@H](CCC(=O)O)C(=O)O)C(=O)O)C(=O)O)cc1[211At] (stereo partly shown) [[^211At] labeled PSMA-904]"
subject_of_test = "PSMA + PC-3 PiP and PSMA − PC-3 flu tumor xenografts"
category = "false"

[[record]]
molecule = "N=C(N)NCc1ccc(C(=O)NCCCC[C@H](NC(=O)N[C@@H](CCC(=O)O)C(=O)O)C(=O)O)cc1[131I] [[^131I] labeled 7 (PSMA-620)]"
subject_of_test = "PSMA + PC-3 PiP and PSMA − PC-3 flu tumor xenografts"
category = "false"

[[record]]
molecule = "O=C(O)CC[C@H](NC(=O)N[C@@H](CCC(=O)NCCc1ccc([131I])cc1)C(=O)O)C(=O)O [[^131I]HS-549]"
subject_of_test = "PSMA + PC-3 PiP and PSMA − PC-3 flu tumor xenografts"
category = "true"

[[record]]
molecule = "O=C(O)CC[C@H](NC(=O)NC(CCCCNC(=O)c1ccc([211At])cc1)C(=O)O)C(=O)O (stereo partly shown) [[^211At]YC-I-27]"
subject_of_test = "PSMA + PC-3 PiP and PSMA − PC-3 flu tumor xenografts"
category = "true"

[[record]]
molecule = "O=C(O)CC[C@H](NC(=O)N[C@@H](CCCCNC(=O)c1ccc([131I])cc1)C(=O)O)C(=O)O [[^131I]YC-I-27]"
subject_of_test = "PSMA + PC-3 PiP and PSMA − PC-3 flu tumor xenografts"
category = "false"

[[record]]
molecule = "O=C(O)CC[C@H](NC(=O)N[C@@H](CCC(=O)NCCc1ccc([211At])cc1)C(=O)O)C(=O)O [[^211At]HS-549]"
subject_of_test = "PSMA + PC-3 PiP and PSMA − PC-3 flu tumor xenografts"
category = "true"

[[record]]
molecule = "N=C(N)NCc1ccc(C(=O)NCCCCC(NC(=O)CCCCCCC(=O)NCCCC[C@H](NC(=O)N[C@@H](CCC(=O)O)C(=O)O)C(=O)O)C(=O)O)cc1[131I] (stereo partly shown) [[^131I] labeled PSMA-904]"
subject_of_test = "PSMA + PC-3 PiP and PSMA − PC-3 flu tumor xenografts"
category = "false"

